# study target: T1, recombinant cynomolgus monkey PD-1 expressed with a C-terminal myc-myc-hexahistidine tag (cynomolgus monkey (Macaca fascicularis))
# T1 construct: monomeric; also called MfPD-1-MMH
# T1 chain: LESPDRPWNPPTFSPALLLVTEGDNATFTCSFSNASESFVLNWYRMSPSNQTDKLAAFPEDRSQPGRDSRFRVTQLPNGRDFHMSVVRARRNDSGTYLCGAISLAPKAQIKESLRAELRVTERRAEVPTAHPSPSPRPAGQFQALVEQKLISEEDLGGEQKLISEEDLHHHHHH
# experimental details: SPR, mAb captured, 37C;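 note: rate constants from fitting sensorgrams to a 1:1 binding model, with Kd computed as koff/kon and half-life as ln2/(60·koff), PD-1 flowing over anti-PD-1 antibody surfaces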
measurement label: koff (s⁻¹)
Reply numerically in s⁻¹, unit not repeated.

Solved cases below.
H4H7798N (antibody, human IgG4 S228P, kappa, V domains shown) VH: EVQLLESGGVLVQPGGSLRLSCAASGFTFSNFGMTWVRQAPGKGLEWVSGISGGGRDTYFADSVKGRFTISRDNSKNTLYLQMNSLKGEDTAVYYCVKWGNIYFDYWGQGTLVTVSS VL: DIQMTQSPSSLSASVGDSITITCRASLSINTFLNWYQQKPGKAPNLLIYAASSLHGGVPSRFSGSGSGTDFTLTIRTLQPEDFATYYCQQSSNTPFTFGPGTVVDFRR : 0.00223
H2aM7798N (antibody, mouse IgG2a, V domains shown, Human variable regions, mouse IgG2a Fc; also called H2M7798N) VH: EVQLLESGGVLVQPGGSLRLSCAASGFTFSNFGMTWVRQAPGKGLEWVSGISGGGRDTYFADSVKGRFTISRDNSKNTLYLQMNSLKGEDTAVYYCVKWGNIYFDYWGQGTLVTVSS VL: DIQMTQSPSSLSASVGDSITITCRASLSINTFLNWYQQKPGKAPNLLIYAASSLHGGVPSRFSGSGSGTDFTLTIRTLQPEDFATYYCQQSSNTPFTFGPGTVVDFR : 0.000993

Let's switch to this binder now.
Ask: For the binder H2aM7780N (antibody, mouse IgG2a, V domains shown, Human variable regions, mouse IgG2a Fc (H2aM prefix); also called H2M7780N) VH: QVQLVESGGGVVQSGRSLRLSCAASGFTFSSYGMHWVRQAPGKGLEWVAVIWYDGSNIYYSDSVKGRFTISRANSKNTLYLQMNSLRAEDTAVYYCARPGHWNYFFEYWGQGTLVTVSS VL: DIQMTQSPSSLSASVGDRVTITCRASQSINNYLNWYQQKPGKAPKLLIYTASSLQSGVPSRFSGSGSGTDFTLTISSLQPEDFATYYCQQSYSTPPLTFGQGTQLEIK , what koff is on record?
Reply: 0.00138
